System: ATP;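 also: ATP exposure 15 min at 22 °C before imaging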
ASSAY METHOD TEXT: switch fluorescence ratio, 500 uM ATP over buffer (Cy3 cluster intensity, sum of 5 cycles each) (fold (ratio)); higher = stronger signal-on switching upon ATP binding; sequences stand for … in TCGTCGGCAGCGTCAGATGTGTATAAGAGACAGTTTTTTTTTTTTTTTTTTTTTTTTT…TC
APPLIED CONDITIONS: aptamer strand: ATP DNA aptamer (quencher-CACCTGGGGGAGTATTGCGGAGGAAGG + anchor), 100 nM annealed; ATP concentration: 500 uM
Items are presented alongside their recorded switch fluorescence ratio.
Reply: number alone, nothing else.

[
  {
    "SEQ": "ACCCGATCTT",
    "switch fluorescence ratio": 1
  },
  {
    "SEQ": "CGTTTTTGTT",
    "switch fluorescence ratio": 1
  },
  {
    "SEQ": "TGTGGGATAC",
    "switch fluorescence ratio": 1.2
  },
  {
    "SEQ": "AACGGCTCTT",
    "switch fluorescence ratio": 1.03
  },
  {
    "SEQ": "ATAAGCGGAG",
    "switch fluorescence ratio": 1
  }
]

API: value(readout=switch fluorescence ratio, system=ATP) for record `ACCAAGAGCG`;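 also: ATP exposure 15 min at 22 °C before imaging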
1.05

API: value(readout=switch fluorescence ratio, system=ATP) for record `ATAGTTTTTT`;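 also: ATP exposure 15 min at 22 °C before imaging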
0.977

API: value(readout=switch fluorescence ratio, system=ATP) for record `AATGCTGGTG`;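 also: ATP exposure 15 min at 22 °C before imaging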
1.07
